Experimental System: Angiopoietin-1 receptor (Homo sapiens, UniProt Q02763)
Sequence (Q02763 whole entry): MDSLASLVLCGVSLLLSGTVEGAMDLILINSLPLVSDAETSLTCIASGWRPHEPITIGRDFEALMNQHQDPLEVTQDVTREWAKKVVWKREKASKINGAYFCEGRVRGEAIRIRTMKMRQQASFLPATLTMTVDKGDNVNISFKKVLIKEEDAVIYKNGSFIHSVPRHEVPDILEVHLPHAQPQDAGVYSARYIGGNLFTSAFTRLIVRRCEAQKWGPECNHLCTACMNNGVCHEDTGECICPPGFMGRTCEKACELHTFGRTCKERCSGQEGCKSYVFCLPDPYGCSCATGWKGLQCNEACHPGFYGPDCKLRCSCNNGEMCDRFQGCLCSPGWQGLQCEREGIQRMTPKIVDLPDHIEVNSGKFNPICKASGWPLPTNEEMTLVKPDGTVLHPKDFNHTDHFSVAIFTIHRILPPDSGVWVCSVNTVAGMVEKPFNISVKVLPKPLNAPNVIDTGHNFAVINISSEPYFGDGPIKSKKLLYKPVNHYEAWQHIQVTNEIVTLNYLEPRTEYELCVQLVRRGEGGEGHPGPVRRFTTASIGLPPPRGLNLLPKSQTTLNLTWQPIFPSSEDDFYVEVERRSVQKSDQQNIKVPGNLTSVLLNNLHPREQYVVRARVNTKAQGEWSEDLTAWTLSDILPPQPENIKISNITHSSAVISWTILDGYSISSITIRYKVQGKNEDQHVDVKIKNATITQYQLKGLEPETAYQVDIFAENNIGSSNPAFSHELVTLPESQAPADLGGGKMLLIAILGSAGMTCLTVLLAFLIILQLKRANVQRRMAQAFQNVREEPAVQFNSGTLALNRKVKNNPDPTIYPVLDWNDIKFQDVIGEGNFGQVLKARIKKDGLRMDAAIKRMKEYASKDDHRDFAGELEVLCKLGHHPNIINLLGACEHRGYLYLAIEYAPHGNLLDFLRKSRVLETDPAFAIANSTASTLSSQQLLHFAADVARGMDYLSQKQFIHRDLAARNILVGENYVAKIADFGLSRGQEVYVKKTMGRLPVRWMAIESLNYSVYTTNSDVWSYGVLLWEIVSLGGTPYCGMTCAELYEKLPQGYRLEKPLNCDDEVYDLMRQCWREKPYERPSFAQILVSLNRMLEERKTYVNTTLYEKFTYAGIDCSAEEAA
Experiment: Inhibition of GST-tagged human recombinant TIE2 expressed in baculovirus
Record form. Attribute: log10(IC50). Fill in for each entry.
Record value = log10 of IC50 given in nM.

Solved cases below.
COC(=O)Nc1nc2nc(Oc3ccc(NC(=O)Nc4cc(C(F)(F)F)ccc4F)cc3)ccc2[nH]1	0.75
COC(=O)Nc1nc2ccc(Oc3ccc(CC(=O)Nc4cc(C(F)(F)F)ccc4F)cc3)cc2[nH]1	3.73
COC(=O)Nc1nc2ccc(Oc3ccc(NC(=O)Nc4cc(N)ccc4F)cc3)cc2[nH]1	3.34
COC(=O)Nc1nc2ccc(C(=O)c3ccc(NC(=O)Nc4cc(C(F)(F)F)ccc4F)cc3)cc2[nH]1	1.04
COC(=O)Nc1nc2ccc(Oc3ccc(NC(=O)Nc4cccc(Cl)c4)cc3)cc2[nH]1	1.60

Please look at the items below and tell me log10(IC50) for each one, in order.
1. COC(=O)Nc1nc2cc(Oc3ccc(NC(=O)Nc4cc(C(F)(F)F)ccc4Cl)cc3)ccc2[nH]1
2. COCCOCC(=O)Nc1nc2ccc(Oc3ccc(NC(=O)Nc4cc(C(F)(F)F)ccc4F)cc3)cc2[nH]1

Resp:
1. 0.80
2. 0.48

Please look at the items below and tell me log10(IC50) for each one, in order.
1. COC(=O)Nc1nc2cc(Oc3ccc(NC(=O)Nc4cc(F)ccc4F)cc3)ccc2[nH]1
2. COC(=O)Nc1nc2ccc(S(=O)(=O)c3ccc(NC(=O)Nc4cc(C(F)(F)F)ccc4F)cc3)cc2[nH]1

Resp:
1: 2.59; 2: 2.08

src = ChEMBL document CHEMBL1148750
